TGI reference
Test system: SR leukemia
Test: NCI tumour cell line growth inhibition, 48 h

See these solved cases before continuing.
COMPOUND	TESTED_ON	TGI
CN(C)CCCNC(=O)c1cc(NC(=O)c2cc(NC(=O)c3cc(NC(=O)CCCn4ccc(CO)c4CO)cn3C)cn2C)cn1C	SR leukemia	> 100 µM
Cc1nc2ccccc2c(=O)n1NC(=O)Cc1ccccc1	SR leukemia	> 100 µM
Clc1ccc(OCC2NC3C=CC32)cn1 (stereo unspecified)	SR leukemia	> 100 µM
O=C1OCC2=C1C(c1cccc(F)c1)c1cc3c(cc1N2CCO)OCCO3 (stereo unspecified)	SR leukemia	> 50 µM
Cc1ccnc(NC(=S)Nc2ccccc2Cl)c1	SR leukemia	> 100 µM

// below: TGI requested for another compound
For CC(C)C(/C=C/c1ccccc1)=N\NC(=O)N/N=C(/C=C/c1ccccc1)C(C)C on SR leukemia, measured TGI was 87.2 µM
